Attribute: pIC50
target.system: CDK2/Cyclin E1 (Homo sapiens, UniProt P24941)
assay.info: CDK2/Cyclin E1 Caliper LabChip EZ Reader mobility shift assay
Format: biochemical
Set-up: purchased Eurofins 14-475
condition.set: read-out: Caliper Assay (CDK2/CCNE1): IC50
pIC50: −log10 of the molar value.

Cc1ccc(CNC(=O)[C@@H]2CN(C(=O)c3cnn(Cc4ccncc4F)c3)CC23CN(C(=O)[C@H]2CC2(C)C)C3)nn1 ... < 5.00

Consider the compound CNC(=O)C(NC(=O)[C@@H]1CN(C(=O)c2cn[nH]c2)CC12CN(C(=O)[C@H]1CC1(C)C)C2)C(O)Cc1ccccc1 (some centres unmarked) . State its measured pIC50. < 5.00

Consider the compound COC[C@H]1CCCN(C(=O)[C@@H](NC(=O)[C@@H]2CN(C(=O)c3cncs3)CC23CN(C(=O)C(C)(C)C2CC2)C3)[C@@H](C)OCC2CCCCC2)C1 . State its measured pIC50. ≥ 8.00

Consider the compound CNC(=O)[C@@H](NC(=O)[C@]1(C)CN(C(=O)c2cnn(Cc3ccccc3)c2)CC12CN(C(=O)[C@H]1CC1(C)C)C2)[C@@H](C)OCC1CCCCC1 [I-499A] . State its measured pIC50. 5.00 to 6.00

Consider the compound COC[C@H]1CCCN(C(=O)[C@@H](NC(=O)[C@@H]2CN(C(=O)c3cncs3)CC23CN(C(=O)[C@H]2CC2(C)C)C3)[C@@H](C)O[C@@H](C)C2CCCCC2)C1 [I-369] . State its measured pIC50. ≥ 8.00

Consider the compound C[C@@H](OCC1CCC(F)(F)CC1)[C@H](NC(=O)[C@@H]1CN(C(=O)c2cncs2)CC12CN(C(=O)[C@H]1CC1(C)C)C2)C(=O)N1CCC(O)CC1 . State its measured pIC50. ≥ 8.00

Consider the compound C[C@@H](OCC1CCC(F)(F)CC1)[C@H](NC(=O)[C@@H]1CN(C(=O)c2cn[nH]c2)CC12CN(C(=O)[C@H]1CC1(C)C)C2)C(=O)N1CCOCC1 . State its measured pIC50. ≥ 8.00

Consider the compound COC1CCN(C(=O)[C@@H](NC(=O)[C@@H]2CN(C(=O)c3cncs3)CC23CN(C(=O)[C@H]2CC2(C)C)C3)[C@@H](C)OCC2CCC(F)(F)CC2)CC1 . State its measured pIC50. ≥ 8.00

Consider the compound CNC(=O)[C@@H](NC(=O)C1(F)CN(C(=O)c2cnn(Cc3ccccc3)c2)CC12CN(C(=O)[C@H]1CC1(C)C)C2)[C@@H](C)OCC1CCCCC1 (some centres unmarked) . State its measured pIC50. 7.00 to 8.00

* * *

Attribute: IC50
target.system: CDK2/Cyclin E1 (Homo sapiens, UniProt P24941)
assay.info: CDK2/Cyclin E1 Caliper LabChip EZ Reader mobility shift assay
Type: biochemical
Set-up: purchased Eurofins 14-475
condition.set: read-out: Caliper Assay (CDK2/CCNE1): IC50

These recorded examples may help you get a feel for the data.
CC1(C)C[C@@H]1C(=O)N1CC2(CN(C(=O)c3cnn(Cc4ccccc4)c3)C[C@@H]2C(=O)N2CCC(Cc3ccccc3)CC2)C1 [I-58B] ... 1000 to 10000 nM
CC1(C)C[C@@H]1C(=O)N1CC2(CN(C(=O)c3cnn(Cc4ccccc4)c3)C[C@H]2C(=O)NC[C@H]2CC[C@H](C)CC2)C1 [I-382] ... 1000 to 10000 nM
CC(=O)N1C[C@@H](C(=O)N[C@H](C(=O)N2CCCCC2)[C@@H](C)OCC2CCCCC2)C2(C1)CN(C(=O)[C@H]1CC1(C)C)C2 [I-118] ... > 10000 nM
CNC(=O)[C@@H](NC(=O)[C@@H]1CN(Cc2cnc[nH]2)CC12CN(C(=O)[C@H]1CC1(C)C)C2)[C@@H](C)OCc1ccccc1 [I-77A] ... > 10000 nM
COC[C@H]1CCCN(C(=O)[C@@H](NC(=O)[C@@H]2CN(C(=O)c3cncs3)CC23CN(C(=O)[C@H]2CC2(C)C)C3)[C@@H](C)OC[C@H]2CC[C@H](N)CC2)C1 [I-433] ... 1000 to 10000 nM
C[C@@H](OCC1CCC(F)(F)CC1)[C@H](NC(=O)[C@@H]1CN(C(=O)c2cn[nH]c2)CC12CN(C(=O)[C@H]1CC1(C)C)C2)C(=O)N1CCC(F)(F)CC1 [I-228A] ... ≤ 10 nM
Cc1ccc(CNC(=O)[C@@H]2CN(C(=O)c3cnn(Cc4ccccc4)c3)CC23CN(C(=O)[C@H]2CC2(C)C)C3)nc1 [I-365] ... 1000 to 10000 nM
CC1(C)C[C@@H]1C(=O)N1CC2(CN(C(=O)c3cnn(Cc4ccccc4)c3)C[C@H]2C(=O)NCc2nnc[nH]2)C1 [I-191A] ... > 10000 nM

Consider the compound CNC(=O)[C@@H](NC(=O)[C@@H]1CN(C(=O)c2cnn(Cc3ccccc3)c2)CC12CN(C(=O)[C@H]1CC1(C)C)C2)[C@@H](C)OCC1CCOCC1 [I-119A] . State its measured IC50. 100 to 1000 nM

Consider the compound CNC(=O)[C@@H](NC(=O)[C@@H]1CN(C(=O)C2CCOCC2)CC12CN(C(=O)[C@H]1CC1(C)C)C2)[C@@H](C)OCc1ccccc1 [I-38A] . State its measured IC50. > 10000 nM

Consider the compound C[C@H](NC(=O)[C@H]1CN(C(=O)c2cnn(Cc3ccccc3)c2)CC12CN(C(=O)[C@H]1CC1(C)C)C2)c1cccc(F)c1 [I-127B] . State its measured IC50. > 10000 nM

* * *

Attribute: IC50
target.system: CDK2/Cyclin E1 (Homo sapiens)
assay.info: CDK2/Cyclin E1 Caliper LabChip EZ Reader mobility shift assay
Format: biochemical
Parameters: purchased Eurofins 14-475
condition.set: read-out: Caliper Assay (CDK2/CCNE1): IC50
Experimental: Inhibition of CDK2/Cyclin E1 activity in the presence of compounds of the present disclosure was evaluated using a Caliper LabChip® EZ Reader mobility shift assay. […] The peptide substrate and product were measured, and the conversion ratio was used to determine the inhibition (as % activity and IC50 values) of CDK2/Cyclin E1. […]

These recorded examples may help you get a feel for the data.
COC[C@H]1CCCN(C(=O)[C@@H](NC(=O)[C@@H]2CN(C(=O)c3cncs3)CC23CN(C(=O)[C@H]2CC2(C)C)C3)[C@@H](C)OCc2ccc(C(F)(F)F)cc2)C1 ... ≤ 0.01 µM
C[C@@H]1C[C@H](C)CN(C(=O)[C@@H](NC(=O)C2CN(C(=O)c3cn[nH]c3)CC23CN(C(=O)[C@H]2CC2(C)C)C3)[C@@H](C)OCc2ccccc2)C1 (stereo partly drawn) ... 0.1 to 1 µM
CNC(=O)[C@@H](NC(=O)[C@@H]1CN(C(=O)c2cncs2)CC12CN(CC(C)(C)C)C2)[C@@H](C)OCC12CCC(CC1)OC2 ... > 10 µM
CNC(=O)[C@@H](NC(=O)[C@@H]1CN(C(=O)c2sc(C)nc2C)CC12CN(C(=O)[C@H]1CC1(C)C)C2)[C@@H](C)OCC1CCCCC1 [I-213A] ... 0.01 to 0.1 µM

State measured IC50 of the compound CNC(=O)[C@@H](NC(=O)[C@H]1CN(C(=O)c2cnc(CC3CC3)s2)CC12CN(C(=O)[C@H]1CC1(C)C)C2)[C@@H](C)OCC1CCCCC1 [I-177B] with CDK2/Cyclin E1 (Homo sapiens). 1 to 10 µM

State measured IC50 of the compound CNC(=O)[C@@H](NC(=O)[C@H]1CN(Cc2n[nH]c3ccccc23)CC12CN(C(=O)[C@H]1CC1(C)C)C2)[C@@H](C)OCc1ccccc1 with CDK2/Cyclin E1 (Homo sapiens). > 10 µM

* * *

Attribute: pIC50
target.system: CDK2/Cyclin E1 (Homo sapiens)
assay.info: CDK2/Cyclin E1 Caliper LabChip EZ Reader mobility shift assay
Format: biochemical
Set-up: purchased Eurofins 14-475
condition.set: read-out: Caliper Assay (CDK2/CCNE1): IC50
pIC50: −log10 of the molar value.

Consider the compound CNC(=O)[C@@H](NC(=O)[C@@H]1CN(C(=O)c2cnn(Cc3ccccc3)c2)CC12CN(C(=O)[C@H]1CC1(C)C)C2)[C@@H](C)OCc1cccnc1 . State its measured pIC50. 6.00 to 7.00

Consider the compound C[C@@H](OCC1(C(F)(F)F)CC1)[C@H](NC(=O)[C@H]1CN(C(=O)c2cncs2)CC12CN(C(=O)[C@H]1CC1(C)C)C2)C(=O)N1CCC(F)(F)CC1 . State its measured pIC50. 6.00 to 7.00

Consider the compound CNC(=O)[C@@H](NC(=O)[C@@H]1CN(C(=O)c2cnn(Cc3ccccc3)c2)CC12CN(C(=O)[C@H]1CC1(C)C)C2)C(C)(C)OCc1ccccc1 . State its measured pIC50. 7.00 to 8.00

Consider the compound C[C@@H](OCc1ccccc1)[C@H](NC(=O)[C@@H]1CN(C(=O)c2cnn(Cc3ccccc3)c2)CC12CN(C(=O)[C@H]1CC1(C)C)C2)C(N)=O [I-176A] . State its measured pIC50. 7.00 to 8.00

Consider the compound C[C@@H](OCc1ccccc1)[C@H](NC(=O)C1CN(C(=O)c2cnn(Cc3ccccc3)c2)CC12CN(C(=O)[C@H]1CC1(C)C)C2)C(=O)O (stereo partly drawn) . State its measured pIC50. 6.00 to 7.00

Consider the compound CNC(=O)C(NC(=O)[C@@H]1CN(C(=O)c2cncs2)CC12CN(C(=O)[C@H]1CC1(C)C)C2)c1ncc(C2CCCCC2)o1 (stereo partly drawn) . State its measured pIC50. 6.00 to 7.00
